Molecular target: B1R receptor of the rat (rB1R) (Rattus norvegicus, UniProt P97583)
Construct: expressed in transfected cells; host or cells: CHO K1 cells
Assay: Functional investigation on the bradykinin 1 receptor (B1R), FLIPR Ca2+ assay, rB1R cells
Format: cell-based
Settings: test substance 10 μM; CHO K1 cells transfected with rat B1R gene; Fluo-4 Ca2+ signal; agonist Des-Arg9-bradykinin at EC80; % of maximum achievable inhibition; read-out: B1R antagonism, rat [10 μM] % inhibition
Source text: The agonistic or antagonistic action of substances on the bradykinin 1 receptor (B1R) of the human and rat species can be quantified with ectopically expressing cell lines (CHO K1 cells) and with the aid of a Ca^2+-sensitive dyestuff (Fluo-4) in a fluorescent imaging plate reader (FLIPR). […] The agonistic or antagonistic action of substances on the bradykinin 1 receptor (B1R) of the human and rat species can be determined with the following assay. […]
Where a name gives a salt, the structure may show the parent alone.
READOUT_LABEL: inhibition at 10 µM (%)

- O=S(=O)(CCC[C@@H]1CCCN1S(=O)(=O)c1ccccc1C(F)(F)F)N1CCC(Oc2ccncc2)CC1: 75
- COc1cc(C)c(S(=O)(=O)N2CCC[C@H]2CCCS(=O)(=O)N2CCC3(CCC(Oc4ccncc4)CC3)CC2)c(C)c1 [Example 66, hydrochloride]: 102
- Cc1cc(C)c(S(=O)(=O)N2CCC[C@@H]2CCCS(=O)(=O)N2CCN(C3CCN(C)CC3)CC2)c(C)c1 [Example 41, dihydrochloride]: 7
- O=S(=O)(CCC[C@@H]1CCCN1S(=O)(=O)c1ccccc1C(F)(F)F)N1[C@@H]2CC[C@H]1C[C@H](Oc1ccncc1)C2: 99
- Cc1cccc(Cl)c1S(=O)(=O)N1CCC[C@H]1CCCS(=O)(=O)N1CCC2(CCC(Oc3ccncc3)CC2)CC1: 104

A: O=S(=O)(CCC[C@@H]1CCCN1S(=O)(=O)c1ccc(C(F)(F)F)cc1Cl)N1CCC(Oc2ccncc2)CC1
B: O=S(=O)(CCC[C@@H]1CCCN1S(=O)(=O)c1ccccc1C(F)(F)F)N1CCC2(CCN(c3ccncc3)CC2)CC1 [Example 68, hydrochloride]
When their inhibition at 10 µM values are compared, which is larger, A or B ? // return label of chosen record
B

I: Cc1cc(S(=O)(=O)N2CCC[C@H]2CCCS(=O)(=O)N2CCN(C3CCN(C)CC3)CC2)c(C)cc1Cl
II: COc1cc(C)c(S(=O)(=O)N2CCC[C@H]2CCCS(=O)(=O)N2CCN(C3CCN(C)CC3)CC2)c(C)c1
III: Cc1cc(C)c(S(=O)(=O)N2CC[C@@H]2CCCS(=O)(=O)N2CCC(CCN3CCCC3)CC2)c(C)c1 [Example 4, hydrochloride]
rank_up(items): orders items by reported inhibition at 10 µM in ascending numerical order. Present the labels in the sequence the task asks for.
III, I, II

###

Biological target: B1R receptor of the rat (rB1R) (Rattus norvegicus)
Construct: expressed in transfected cells; host or cells: CHO K1 cells
Sequence (P97583 1-337): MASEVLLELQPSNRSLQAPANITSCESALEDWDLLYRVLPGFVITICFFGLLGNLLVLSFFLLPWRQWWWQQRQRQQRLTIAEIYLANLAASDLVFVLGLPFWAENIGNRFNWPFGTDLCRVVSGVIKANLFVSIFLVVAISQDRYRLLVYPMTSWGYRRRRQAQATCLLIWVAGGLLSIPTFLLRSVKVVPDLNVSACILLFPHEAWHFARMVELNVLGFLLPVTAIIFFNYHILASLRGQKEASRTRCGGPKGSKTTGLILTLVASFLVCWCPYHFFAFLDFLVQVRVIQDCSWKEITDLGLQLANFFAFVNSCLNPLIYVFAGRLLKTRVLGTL
Assay: Functional investigation on the bradykinin 1 receptor (B1R), FLIPR Ca2+ assay, rB1R cells
Assay type: cell-based
Details: test substance 10 μM; CHO K1 cells transfected with rat B1R gene; Fluo-4 Ca2+ signal; agonist Des-Arg9-bradykinin at EC80; % of maximum achievable inhibition; read-out: B1R antagonism, rat [10 μM] % inhibition
READOUT_LABEL: inhibition at 10 µM (%)

- CN1CCC(N2CCN(S(=O)(=O)CCC[C@@H]3CCCN3S(=O)(=O)CC(c3ccccc3)c3ccccc3)CC2)CC1: 36
- CN1CCC(N2CCN(S(=O)(=O)CC3CCCCN3S(=O)(=O)c3cccc(C(F)(F)F)c3)CC2)CC1 (stereo not shown): 40

I: O=S(=O)(CCC[C@@H]1CCCN1S(=O)(=O)c1c(Cl)cc(C(F)(F)F)cc1Cl)N1CCC(Oc2ccncc2)CC1
II: CN1CCC(N2CCN(S(=O)(=O)CCC[C@@H]3CCCN3S(=O)(=O)c3cccc(C(F)(F)F)c3)CC2)CC1
Could you tell me which of I and II has the lower inhibition at 10 µM reading? // return label of chosen record
I
